These measurements were taken from patent US20160264650A1.

- test-target: T1, CBD-toxin A-Fc (Clostridium difficile, UniProt P16154 1848-2710)
- T1 construct: also called CBD-A; C-term Toxin A
- experiment-summary: SPR Biacore, mAb capture and CBD-Fc capture formats
endpoint-name: binding result

INSERT INTO measurements (binder, result_value) VALUES
  ('H1H3339P (antibody, V domains shown) VH: EVQLVESGGGLVQPGGSLRLSCAVSGFTFSIYAMSWVRQAPGKGLEWVSAISGSGDKTYYADSVKGRFTISRDNSKNTLYLQMNSLRAEDTAVFYCARGWELLNYWGQGTLVTVSS VL: DIQMTQSPSSLSASVGDRVTITCRASLDISNFLAWFQQKPGTAPKSLIYSASSLRTGVPSKFSGSGSGTDFTLTISSLQPEDFATYYCQQYSSYPPTFGPGTKVDIKR', 'no binding'),
  ('H1H3344P (antibody, V domains shown) VH: EVQLVESGGGLVQPGGSLRLSCAASGFTFKIYAMSWVRQGPGKGLEWVSAISGNGDKTYYTDSVQGRFTISRDNSKNTLFLQMNSLRAEDTAIYYCARGWELLNYWGQGTLVTVSS VL: DIQMTQSPSSLSASIGDRVTITCRASQDISNSLAWFQQKPGKAPKSLIYAASSLQSGVPSRFSGSGSGTDFTLTISSLQPEDFATYYCQQYIPFPPTFGPGTKVDIKR', 'no binding'),
  ('H2M3121N (antibody, V domains shown, also called H2aM3121N; H1M3121N) VH: EVQLVESGGDLVQPGGSLRLSCAASGVTFRTYEMNWVRQAPGKGLEWISHISSSGDIIYYTKSVKGRFTISRDNAKNSLFLQMTSLRAEDTAVYYCARERYSQYGYYYFGMDVWGQGTTVTVSS VL: DIQMTQSPSTLSASIGDRVTITCRASQNTDKWMAWYQQKAGKAPKLLIYKASILESGVPSRFSGSGSGTEFTLTISSLQPDDFATYYCQEYNTYFRAFGQGTKVETR', 'no binding');
